src = PubChem BioAssay AID1851

# TARGET DESC: Cytochrome P450 3A4 (Homo sapiens)
# ASSAY METHOD TEXT: Cytochrome panel assay with activity outcomes; note: % is set by controls: 0 for no effect and ±100 for the full control effect
# CONDITIONS USED: recombinant CYP, pro-luciferin dealkylation, luminescence, p450-cyp3a4; series mostly up to 57.1 µM
The whole screen tested about 16,000 compounds, of which about 5,100 (32%) were called active. Roughly 25% stayed inconclusive and do not appear here. The list shows a part of the results.
Give measured activity, negative = inhibition for each item. Keep answers brief.

q: What measured activity, negative = inhibition goes with Cc1ccc(NC(=O)CCC(=O)NNC(=O)c2ccco2)cc1C ?
a: -4.43% [at 2.29 µM] (inactive)

q: Cc1ccc(NC(=O)Nc2nc(-c3ccc(C)s3)cs2)cc1 ?
a: -0.444% [at 2.29 µM] (inactive)

q: How about this compound: COc1ccc(Nc2ncc(C(=O)N3CCN(c4ccc(F)cc4)CC3)c3ccccc23)cc1
a: -5.25% [at 2.29 µM] (inactive)

q: Item: O=C(O)C1(Nc2ccc(Cl)cc2)CCCC1
a: -9.17% [at 11.4 µM] (inactive)

q: Now give it for CCCCN1C2=NCCCN2c2ccccc21 too.
a: 7.3% [at 11.4 µM] (inactive)

q: One more compound: O=C(O)CC[C@@H](C(=O)O)N1C(=O)[C@@H]2[C@@H]3CC[C@H](C3)[C@@H]2C1=O
a: -4.14% [at 11.4 µM] (inactive)

q: Next up: COCCN1C(=O)c2ccccc2C(C(=O)Nc2ccc3c(c2)OCCO3)C1c1ccc(F)cc1 (centres undefined)
a: -22.8% [at 2.29 µM] (inactive)

q: NC[C@H]1O[C@H](n2cnc3c(N)ncnc32)C[C@@H]1O ?
a: -10.5% [at 11.4 µM] (inactive)

q: Again, but for Clc1ncccc1-c1nc2ccccc2n1Cc1ccccc1
a: 6.58% [at 2.29 µM] (inactive)

q: Then this compound: COc1cc(CN2CCCCC2)cc2cc(C(=O)O)c(=O)oc12
a: -36.8% [at 11.4 µM] (inactive)

q: Please do the same for COc1ccc(OC)c(-c2cc(C(=O)O)c3cc4ccccc4cc3n2)c1 as well.
a: 6% [at 11.4 µM] (inactive)

q: // query: NS(=O)(=O)c1cc2c(cc1Cl)=NC(CCC(=O)O)=NS=2(=O)O
a: 15.3% [at 11.4 µM] (inactive)

q: And what about the compound NS(=O)(=O)c1ccc(NCc2nc3ccccc3[nH]2)cc1 ?
a: -19.2% [at 11.4 µM] (inactive)

q: Next entry: CCCCOC(=O)Nc1nc2ccccc2s1
a: 0.331% [at 11.4 µM] (inactive)

q: Here is the next compound: COc1cc(C)cc2c(-c3c(O)cc(O)c4c3C[C@H](C)N[C@@H]4C)cc(-c3cc(-c4c(O)cc(O)c5c4C[C@H](C)N[C@@H]5C)c4cc(C)cc(OC)c4c3O)c(O)c12
a: -3.16% [at 11.4 µM] (inactive)

q: Same lookup for Clc1ccc(CSC2=NCCN2)cc1Cl , please.
a: -8.56% [at 11.4 µM] (inactive)

q: Then what about the compound Cn1cnc([N+](=O)[O-])c1Sc1nc(N)nc2c1ncn2Cc1ccccc1 ?
a: -11.4% [at 11.4 µM] (inactive)

q: Also need Oc1ccc(Cc2nccc3cc(O)c(O)cc23)cc1O , thanks.
a: -11.6% [at 11.4 µM] (inactive)

q: Quick one: O=[N+]([O-])/C=C\c1cc2ccccc2[nH]1
a: -22.3% [at 11.4 µM] (inactive)

q: Same question, O[C@H](CNc1ccccn1)c1ccccc1 this time
a: -27.1% [at 11.4 µM] (inactive)

q: Also, CS(=O)(=O)Nc1ccc(Nc2c3ccccc3nc3ccccc23)cc1 please.
a: -25.8% [at 11.4 µM] (inactive)

q: Item: CCOc1ccc(NC(=O)c2ccc(Br)o2)c([N+](=O)[O-])c1
a: 0.495% [at 2.29 µM] (inactive)

q: Please do the same for N[C@@H](Cc1nn[nH]n1)C(=O)O as well.
a: -2.7% [at 11.4 µM] (inactive)

q: Cool, now O=C(NCCN1CCN(Cc2ccccc2)CC1)C1c2ccccc2C(=O)N2CCc3ccccc3C12 (centres undefined)
a: -22.2% [at 2.29 µM] (inactive)

q: Could you do the same for C/C(=N\O)c1cccc[n+]1Cc1ccccc1 , please?
a: -11.2% [at 11.4 µM] (inactive)

q: Let us now turn to Cc1c(NC(=O)Nc2c(Cl)cccc2Cl)c(=O)n(-c2ccccc2)n1C
a: 4.74% [at 11.4 µM] (inactive)

q: Follow-up entry: Cc1c(Cl)cccc1NC(=O)CCC(=O)NNC(=O)c1ccco1
a: 1.8% [at 2.29 µM] (inactive)

q: Again, but for O=C(CSc1cccc2cccnc12)OCC(=O)c1ccccc1
a: 10.1% [at 2.29 µM] (inactive)

q: Follow-up entry: O=C(O)c1ccc(SSc2ccc(C(=O)O)cn2)nc1
a: -8.92% [at 11.4 µM] (inactive)

q: Now consider O=C1C2C3C=CC(C3)C2C(=O)N1/N=C/c1cn(Cc2ccccc2)c2ccccc12 (centres undefined) .
a: -22.4% [at 11.4 µM] (inactive)

q: Item: COc1cc2c(cc1OC)C(C(=O)Nc1ccccn1)C(c1cccnc1)N(C)C2=O (centres undefined)
a: -22% [at 11.4 µM] (inactive)

q: Continue with O=C(O)c1ccccc1-c1ccccc1C(=O)Nc1ccc2c(c1)Cc1ccccc1-2
a: -22.9% [at 11.4 µM] (inactive)

q: Now the compound O=C(NCc1ccco1)c1ccccc1NS(=O)(=O)c1ccc(Br)s1
a: -21% [at 2.29 µM] (inactive)

q: Now the compound C[C@@H](c1ccccc1)N1C(=O)[C@@H]2[C@H]3C(=CC[C@H]2C1=O)C(=O)[C@H]1O[C@H]1[C@H]3O
a: -19.9% [at 11.4 µM] (inactive)

q: Could you do the same for CC1=NCC[N@@+]1(CCc1ccccc1)Cc1ccccc1 , please?
a: -18.6% [at 11.4 µM] (inactive)

q: Next record, please: O=C(O)c1cc(N=Nc2ccc([N+](=O)[O-])cc2)ccc1O
a: -6.97% [at 11.4 µM] (inactive)

q: Another compound to look at: CC1CCN(C(=S)c2ccc(O)cc2)CC1
a: 11.7% [at 2.29 µM] (inactive)

q: Then this compound: Cc1ccc2nc(-c3ccc(NC(=O)c4ccc(N)cc4)c(S(=O)(=O)O)c3)sc2c1
a: -13.7% [at 11.4 µM] (inactive)

q: Another: S=C(NCc1ccco1)N1CCN(Cc2ccco2)CC1
a: -5.09% [at 2.29 µM] (inactive)

q: Let us now turn to C[N@+]1(CCC(=O)c2ccccc2)CC[C@H]2CC[C@H](C2)C1
a: -5.07% [at 11.4 µM] (inactive)

q: Ok, now COC(=O)Cn1cc(/C=N/NC(=O)c2ccc(C#N)cc2F)c2ccccc21
a: -10.5% [at 2.29 µM] (inactive)

q: Next up: O=C(Oc1ccccc1N1C(=O)C2CCCCC2C1=O)c1ccccc1 (centres undefined)
a: -1.02% [at 2.29 µM] (inactive)

q: Next compound up: CC[N+](C)(CC)CCN1C(=O)c2ccccc2S1(=O)=O
a: 6.19% [at 11.4 µM] (inactive)

q: Same question for Cc1cc(C)c2nc3c(c([C@H](O)[C@@H]4CCCCN4)c2c1)CC/C3=C/c1ccc(Cl)cc1 please.
a: -1.86% [at 11.4 µM] (inactive)
